All figures here come from PubChem BioAssay.

Assay Summary: growth suppression of beta-catenin knockout HCT116, pilot screen, human colon tumor cells (AID 823);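 also: 0% = wells killed by 20 µM Hyamine and 100% = untreated DMSO cell wells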
Condition: CellTiter-Glo, 60 h, at 10 µM, stronger effect = lower value
Inconclusive results are not listed. Calls of active or inactive are those of the source.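 The calls were made as follows: active = cell viability at or below a set limit in both duplicate runs, the limit being the all-compound median minus 4 SD (cut at about 23% in these data, passing the limit was not always enough); inconclusive = no clear call, values can overlap the other calls; inactive = the rest.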
Measure Name: viability

Example results:
CCOC(=O)c1cnc2c(C)cccc2c1NCc1ccco1 ... 82.5% (inactive)
CCCS(=O)(=O)c1nc(S(=O)(=O)c2ccc(C)cc2)c(NCCN2CCOCC2)s1 ... 93.7% (inactive)
CCCC(=O)Nc1ccccc1-c1nnc(SC)[nH]c1=O ... 113% (inactive)

# batch: return viability for each of the 3 molecules below
1. Cc1occc1C(=O)NCc1ccc2c(c1)OCO2
2. COC(=O)c1ccc(N2CCOCC2)c(NC(=O)Nc2cccc(OC)c2)c1
3. CCC(C)NC(=O)c1cnc2n(c1=O)CCS2 (stereo not given)

["101% (inactive)", "84.4% (inactive)", "103% (inactive)"]

###

Assay Summary: viability gain of MRP-1-high H69AR cells under doxorubicin, pilot screen, MRP-1 activator project, CellTiter-Glo, duplicate (AID 807);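 also: compound pretreatment 18-22 h then 72 h combined with doxorubicin; 0% = doxorubicin alone and 100% = vehicle without doxorubicin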
Condition: H69AR viability with doxorubicin, CellTiter-Glo luminescence; at 10 µM; stronger effect = higher value
The source made the active and inactive calls.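 The calls were made as follows: active = viability increase at or above a cutoff of the median across tested compounds plus 3 SD (cut at about 8.5% in these data, passing the limit was not always enough); inconclusive = some gains above the cutoff, reason not given; inactive = the rest.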
Measure Name: viability increase

Example results:
CCC(C)NC(=O)c1cc(-c2ccccc2O)on1 (centres undefined) ... -1.23% (inactive)
CC1=C(C(=O)OCC(C)C)C(c2ccccc2Cl)NC(=O)N1C (centres undefined) ... -3.3% (inactive)
CCOC(=O)NC(Nc1ncccn1)(C(F)(F)F)C(F)(F)F ... -3.34% (inactive)
O=C(c1cnn2c(C(F)(F)F)cc(-c3ccco3)nc12)N1CCCCCC1 ... -4.15% (inactive)
CSc1nnc(Cn2c(=O)sc3ccccc32)n1C ... -1.82% (inactive)
CC(=O)NC(CCS(C)(=O)=O)C(=O)Nc1cccc(Cl)c1Cl (centres undefined) ... -4.63% (inactive)

# batch: return viability increase for each of the 3 compounds below
1. CSc1cccc(NC(=O)CN(c2cc(C)ccc2C)S(C)(=O)=O)c1
2. CCOC(=O)C1CCCN(Cc2nc(N)nc(Nc3ccccc3OC)n2)C1 (centres undefined)
3. Cc1cc(C)nc(NS(=O)(=O)c2ccc(NC(=O)CCCN3C(=O)c4ccccc4C3=O)cc2)n1

1: -3.54% (inactive); 2: -3.66% (inactive); 3: -1% (inactive)

###

Assay Summary: growth suppression of beta-catenin knockout HCT116, pilot screen, human colon tumor cells (AID 823);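 also: 0% = wells killed by 20 µM Hyamine and 100% = untreated DMSO cell wells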
Condition: CellTiter-Glo, 60 h, at 10 µM
Inconclusive results are not listed. Calls of active or inactive are those of the source.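 The calls were made as follows: active = cell viability at or below a set limit in both duplicate runs, the limit being the all-compound median minus 4 SD (cut at about 23% in these data, passing the limit was not always enough); inconclusive = no clear call, values can overlap the other calls; inactive = the rest.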
API: response.call in active, inactive

Example entries and their recorded answers appear below.
CC1Cc2ccccc2N1C(=O)CSC1=NCCS1 (stereo not given) ... inactive
COc1ccc(-c2nc(CNS(=O)(=O)c3cc(OC)ccc3OC)cs2)cc1 ... inactive
c1ccc(-n2ncc3c(NCc4cccnc4)ncnc32)cc1 ... inactive
CCOC(=O)Cc1csc(NC(=O)COc2ccc(OC)cc2)n1 ... inactive
Cc1nc2sc(C(c3cccs3)N3CCN(C(=O)c4ccco4)CC3)c(O)n2n1 (stereo not given) ... inactive
CCCC(=O)Nc1nc2ccc(OC)cc2s1 ... inactive

Answer briefly: the call reported for Cc1ccc(C(C(=O)NC2CCCC2)N2CCCCC2)cc1 (stereo not given) in this assay.
inactive

Answer briefly: the call reported for O=C(c1oc(=O)c2ccccc2c1-c1ccccc1)N1CCN(C2CCCCC2)CC1 in this assay.
inactive

Answer briefly: the call reported for O=C(NCc1ccc2c(c1)OCO2)c1cc2c(s1)CSC2 in this assay.
inactive

Answer briefly: the call reported for Cc1ccc(-n2nc(C)c3c(C)c(CCC(=O)NCc4ccco4)c(C)nc32)cc1 in this assay.
inactive

Answer briefly: the call reported for O=C(Nc1ccccc1F)C1CCCN(S(=O)(=O)c2cccc3cccnc23)C1 (stereo not given) in this assay.
inactive

Answer briefly: the call reported for Cc1ccc(-c2nc(CS(=O)CC(=O)NCCN3CCOCC3)c(C)o2)cc1 (stereo not given) in this assay.
inactive

Answer briefly: the call reported for O=C1C2C(c3ccccc3)C=CC(c3ccccc3)C2C(=O)N1CCO (stereo not given) in this assay.
inactive

Answer briefly: the call reported for CSc1cccc(NC(=O)CN(c2cc(C)ccc2C)S(C)(=O)=O)c1 in this assay.
inactive

###

Assay Summary: OD615 S. cerevisiae growth inhibition, permissive medium, pilot counter-assay, permissive growth control for S. cerevisiae lifespan shortening project (AID 705)
Condition: OD615, 24 h, at 10 µM, stronger effect = higher value
Measure Name: growth inhibition (%)
Answers are plain numbers, in %.

Example results:
Cc1ccc(S(=O)(=O)N=C2SCCCS2)cc1 ... -3.74
O=C(Cn1nc(Cc2cccnc2)c2ccccc2c1=O)NCc1ccc2c(c1)OCO2 ... 1.71
CCn1ncc(C2=NOC(C(=O)Nc3c(C)nn(Cc4ccc(F)cc4)c3C)C2)c1C (stereo unspecified) ... -7.87
CC(=O)NCC(=O)OCC(=O)c1ccc(C)cc1 ... 1.93
O=C(O)CC(Cn1cnnn1)c1ccccc1 (stereo unspecified) ... 3.8

Now, please, on to the next compound.
Please look at this compound and report its growth inhibition: O=C(C1CCCN(c2nnc(-n3cccc3)s2)C1)N1CCN(c2ccccc2)CC1 (stereo unspecified)
-4

###

Assay Summary: Restrictive medium S. cerevisiae growth inhibition, OD615, pilot screen of yeast lifespan reduction project, restrictive growth control (AID 706);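 also: modified DeaD lifespan yeast strain shifted to restrictive glucose medium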
Condition: OD615, 48 h, at 10 µM, stronger effect = higher value
Activity calls are given as the source filed them.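 How the source made its calls: active means growth inhibition above a set limit, 3 SD over mean compound inhibition, in both replicates (cut at about 43% in these data); inconclusive means above the limit in only one replicate; inactive means at or below the limit in both replicates.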
Measure Name: growth inhibition

Example results:
COc1ccc(NC(=O)CCS(=O)(=O)c2cccc3nonc23)c(OC)c1 ... -11.7% (inactive)
Cc1ccc(-c2nn(CC(=O)O)c(=O)c3ccccc23)cc1 ... -13.9% (inactive)
CCOC(=O)N1CCN(C(=O)Cn2ncc3ccccc32)CC1 ... -4.71% (inactive)
CCCc1cc(C(=O)NC2CCCC2)no1 ... -2.35% (inactive)
CCC1(C(=O)O)NC(c2cc(OC)ccc2O)C2C(=O)N(Cc3ccccc3)C(=O)C21 (configuration not stated) ... -7.93% (inactive)
O=C(NCCCc1ccccc1)C1CCN(c2nnc(-n3cccc3)s2)CC1 ... 0.98% (inactive)
NS(=O)(=O)c1ccc(CNC(=O)NC2(c3ccccc3)CC2)cc1 ... -6.6% (inactive)
Cc1ccccc1S(=O)(=O)Cc1ccc(C(=O)N2CCN(C3CCCCC3)CC2)o1 ... -5.71% (inactive)
CCN(CC)CCNC(=O)c1sc2nc(-c3ccccc3)cn2c1C ... 6.54% (inactive)
Cn1c(=O)c2c(SC3CCCC3)nc(C3CC3)nc2n(C)c1=O ... -9.07% (inactive)

# batch: return growth inhibition for each of the 2 molecules below
1. Cc1nnc(NC(=O)CSc2nc3c(c(=O)n2CCc2ccccc2)SC(C)C3)s1 (configuration not stated)
2. COc1ccc(N2CCC(CNC(=O)Nc3ccc(C)c(C)c3)C2)cc1 (configuration not stated)

1: -15.6% (inactive); 2: -2.14% (inactive)

###

Assay Summary: viability gain of MRP-1-high H69AR cells under doxorubicin, pilot screen, MRP-1 activator project, CellTiter-Glo, duplicate (AID 807);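 also: compound pretreatment 18-22 h then 72 h combined with doxorubicin; 0% = doxorubicin alone and 100% = vehicle without doxorubicin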
Condition: H69AR viability with doxorubicin, CellTiter-Glo luminescence; at 10 µM; stronger effect = higher value
Calls of active or inactive are those of the source.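 How the source made its calls: active means viability increase at or above a cutoff of the median across tested compounds plus 3 SD (cut at about 8.5% in these data, passing the limit was not always enough); inconclusive means some gains above the cutoff, reason not given; inactive means the rest.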
Measure Name: viability increase

Example results:
O=c1oc2ccccc2n1CCCOc1ccccc1 ... 1.28% (inactive)
CCCCOC(=O)C(C)Oc1ccc(=O)n(-c2ccccc2)n1 (stereo not given) ... -1.41% (inactive)
CCn1ncc(C2=NOC(C(=O)Nc3c(C)nn(Cc4ccc(F)cc4)c3C)C2)c1C (stereo not given) ... 0.42% (inactive)
O=C(CSc1nc2c(c(=O)n1-c1ccc(Cl)cc1)SCC2)NCc1ccco1 ... -4.49% (inactive)
CCN(CC)c1ccc(NC(=O)COc2ccc(C)cc2)cc1 ... 0.42% (inactive)
C=C(Br)Cn1c(CC(C)C)nc2ccccc21 ... -4.96% (inactive)
O=C(Nc1sc2c(c1C(=O)NCC1CCCO1)CCCC2)c1cccs1 (stereo not given) ... -3.45% (inactive)
C=CCc1cccc2cc(C(=O)N(C)C)c(=O)oc12 ... -1.06% (inactive)

# batch: return viability increase for each of the 8 compounds below
1. Nc1ccccc1SCc1cn2cccnc2n1
2. Cc1onc(-c2ccccc2Cl)c1C(=O)NCc1ccc2c(c1)cc(C)n2C
3. O=C(NCc1ccc(Cl)c(Cl)c1)c1cccnc1
4. CN(Cc1ccccc1)S(=O)(=O)c1ccc2[nH]c(=O)oc2c1
5. CCOC(=O)C1C(=O)NC(SC)=C(C#N)C1c1ccccc1F (stereo not given)
6. COc1ccc2nc(SCc3nc(N)nc(Nc4ccccc4)n3)[nH]c2c1
7. Nc1ccc(Nc2ccccc2)c(Cl)c1
8. CCOC(=O)CSc1nnc(Cc2cc(=O)[nH]c(=O)[nH]2)n1-c1ccc(Cl)cc1

1: -2.43% (inactive); 2: -3.02% (inactive); 3: -1.74% (inactive); 4: -0.12% (inactive); 5: -2.97% (inactive); 6: 0.65% (inactive); 7: -7.58% (inactive); 8: 1.33% (inactive)

# batch: return viability increase for each of the 2 compounds below
1. CC1CCCN(Cc2nc3c(c(=O)n(C)c(=O)n3C)n2Cc2c(F)cccc2Cl)C1 (stereo not given)
2. COc1cccc(C(=O)NC2CC3CCCC(C2)N3CC(=O)Nc2ccc(N(C)C)cc2)c1 (stereo not given)

1. -4.6% (inactive)
2. -0.9% (inactive)

# batch: return viability increase for each of the 8 compounds below
1. CCOc1ccccc1Nc1cc(C)nc2nc(C)nn12
2. COc1ccc(OC)c(NC(=O)Nc2ccccc2C)c1
3. O=C1c2ccccc2CCC1C(O)c1ccccn1 (stereo not given)
4. CN(C(=O)CSc1nc(N)nn1-c1ccccc1)c1ccccc1
5. COCCNC(=O)CN(c1cc(C(F)(F)F)ccc1Cl)S(C)(=O)=O
6. Cc1noc(C(=O)NCc2cccnc2)c1Cl
7. COc1ccccc1-c1c(C)nn2c(N3CCN(c4ccccc4OC)CC3)cc(C)nc12
8. COCC(C)NC(=O)c1cc(-c2ccc(O)cc2)on1 (stereo not given)

1: -2.37% (inactive); 2: -3.16% (inactive); 3: -3.89% (inactive); 4: -0.53% (inactive); 5: -0.83% (inactive); 6: 1.31% (inactive); 7: -1.57% (inactive); 8: -3.12% (inactive)
